Values compiled from patent EP0976754B1.

System: airway-constriction reaction
Test: Inhibitory effect on airway-constriction reaction (in vivo), modified Konzet-Lössler method, acetylcholine-elicited
Details: Cavia porcellus, iv; test compound 100 mg/2 ml/kg in 1% CMC through esophageal cannula; acetylcholine 20 µg/kg i.v. at 15, 30, 60 and 120 minutes; anesthetized guinea pigs; read-out: Inhibitory rate (%) Acetylcholine
Quick list: inhibition in vivo at 100 mg/kg per entry.

[
  {
    "compound": "CC(C)(C)N1CCc2cnc3c(C#N)cnn3c21 [Compound 14]",
    "inhibition in vivo at 100 mg/kg [%]": 40.4
  },
  {
    "compound": "N#Cc1cnn2c3c(cnc12)CCN3C1CCCC1 [Compound 1]",
    "inhibition in vivo at 100 mg/kg [%]": 33.4
  },
  {
    "compound": "CCC(C)N1CCc2cnc3c(C#N)cnn3c21 (stereo not drawn) [Compound 2]",
    "inhibition in vivo at 100 mg/kg [%]": 50
  },
  {
    "compound": "N#Cc1cnn2c3c(c(Cl)nc12)CCN3C1CCCC1 [Compound 3]",
    "inhibition in vivo at 100 mg/kg [%]": 22.8
  },
  {
    "compound": "CC(C)(C)N1CCc2c(Cl)nc3c(C#N)cnn3c21 [Compound 15]",
    "inhibition in vivo at 100 mg/kg [%]": 36.5
  },
  {
    "compound": "CCC(C)N1CCc2c(N)nc3c(C#N)cnn3c21 (stereo not drawn) [Compound 7]",
    "inhibition in vivo at 100 mg/kg [%]": 36.5
  },
  {
    "compound": "Cn1c(=O)c2[nH]cnc2n(C)c1=O [Theophylline, theophylline, reference compound]",
    "inhibition in vivo at 100 mg/kg [%]": 39.5
  },
  {
    "compound": "N#Cc1cnn2c3c(c(N)nc12)CCN3C1CCCC1 [Compound 5]",
    "inhibition in vivo at 100 mg/kg [%]": 32.1
  },
  {
    "compound": "CCC(C)N1CCc2c(Cl)nc3c(C#N)cnn3c21 (stereo not drawn) [Compound 4]",
    "inhibition in vivo at 100 mg/kg [%]": 33.2
  }
]
